Test: hydrolytic stability (t½) at 20° C.
Assay type: physicochemical
Details: buffer, pH 4

molecule	half-life (h)
CC(=O)OC1C(O[C@@H]2OC(COC(=O)C3O[C@H](OC(C)=O)C(OC(C)=O)C(OC(C)=O)[C@@H]3OC(C)=O)[C@@H](OC(C)=O)C(OC(C)=O)C2OC(C)=O)OC(COC(=O)C2O[C@H](OC(C)=O)C(OC(C)=O)C(OC(C)=O)[C@H]2OC(C)=O)[C@@H](OC(C)=O)C1OC(C)=O (stereo partly shown)	12

----------
Assay: hydrolytic stability (t½) at 20° C.
Type: physicochemical
Settings: buffer, pH 9

compound	half-life
CC(=O)OC1C(O[C@@H]2OC(COC(=O)C3O[C@H](OC(C)=O)C(OC(C)=O)C(OC(C)=O)[C@@H]3OC(C)=O)[C@@H](OC(C)=O)C(OC(C)=O)C2OC(C)=O)OC(COC(=O)C2O[C@H](OC(C)=O)C(OC(C)=O)C(OC(C)=O)[C@H]2OC(C)=O)[C@@H](OC(C)=O)C1OC(C)=O (stereo partly shown) [Example 1]	< 1 h
